# system name: 11β-hsd-1 enzyme (Homo sapiens, UniProt P28845)
# Sequence (P28845 whole entry, species assumed): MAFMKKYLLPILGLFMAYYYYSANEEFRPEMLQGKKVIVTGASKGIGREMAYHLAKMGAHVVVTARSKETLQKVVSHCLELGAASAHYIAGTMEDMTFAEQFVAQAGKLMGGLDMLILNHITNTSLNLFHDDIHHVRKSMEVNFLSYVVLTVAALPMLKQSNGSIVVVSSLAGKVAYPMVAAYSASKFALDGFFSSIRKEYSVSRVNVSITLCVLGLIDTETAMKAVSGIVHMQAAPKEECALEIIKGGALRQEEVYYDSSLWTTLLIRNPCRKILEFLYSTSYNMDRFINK
# test method notes: 11β-hsd-1 enzyme assay, Kiapp determination (3H-cortisone to cortisol, radio-HPLC)
# Assay type: biochemical
# test context: apparent Ki, 11β-hsd-1 enzyme; read-out: Ki app
Recorded Ki by entry
measure name: Ki (nM)

entry_smiles=Cc1cccc(NS(=O)(=O)c2ccc(-c3ccc4c(c3)CCO4)cc2C)n1 units_text=nM qualifier== value_observed=23
entry_smiles=N#Cc1ccc(C2CCN(S(=O)(=O)Nc3cccc(N)n3)CC2)cc1 units_text=nM qualifier=< value_observed=1
entry_smiles=CCc1ccccc1-c1ccc(S(=O)(=O)Nc2cccc(C)n2)c(C)c1 units_text=nM qualifier== value_observed=43
entry_smiles=Cc1cccc(NS(=O)(=O)c2sc3ccc(C#N)cc3c2C)n1 units_text=nM qualifier== value_observed=2.3
entry_smiles=Cc1cccc(NS(=O)(=O)c2ccc(-c3cccc(F)c3F)cc2C)n1 units_text=nM qualifier== value_observed=7.5
entry_smiles=Cc1cccc(NS(=O)(=O)c2ccc(-c3ccc(C#N)cc3C(F)(F)F)cc2)n1 units_text=nM qualifier== value_observed=12
entry_smiles=Cc1cccc(NS(=O)(=O)c2ccc(-c3cccc(C)c3C)cc2C)n1 units_text=nM qualifier== value_observed=29
entry_smiles=Cc1cccc(NS(=O)(=O)c2ccc(-c3ccccc3)c(C)c2)n1 units_text=nM qualifier== value_observed=36
entry_smiles=Cc1cccc(NS(=O)(=O)c2ccc(-c3ccc(C(F)(F)F)cn3)cc2)n1 units_text=nM qualifier== value_observed=20

###

# system name: UniProt:P28845
# test method notes: 11β-hsd-1 enzyme assay, percentage of inhibition (3H-cortisone to cortisol, radio-HPLC)
# Assay type: biochemical
# test context: 0.1 uM; read-out: % inh @ 0.1 uM
measure name: inhibition at 0.1 µM

entry_smiles=Cc1cccc(NS(=O)(=O)c2ccc(-c3cc(F)cc(F)c3)cc2)n1 value_observed=80.6%
entry_smiles=Cc1cccc(NS(=O)(=O)c2cc3ccccc3s2)n1 value_observed=74.6%
entry_smiles=Cc1cc(CC(=O)N2CCCCC2)nc(NS(=O)(=O)c2cccc(Cl)c2C)c1 value_observed=25.9%
entry_smiles=Cc1cccc(NS(=O)(=O)c2ccc(/C=C/c3ccccc3)cc2)n1 value_observed=59.8%
entry_smiles=Cc1cccc(NS(=O)(=O)c2ccc(-c3ccc(Cl)cc3)cc2C)n1 value_observed=96%

###

Recorded pKi by entry
# system name: 11β-hsd-1 enzyme (Homo sapiens, UniProt P28845)
# test method notes: 11β-hsd-1 enzyme assay, Kiapp determination (3H-cortisone to cortisol, radio-HPLC)
# Assay type: biochemical
# test context: read-out: Ki app
pKi: −log10 of the molar value.
measure name: pKi

entry_smiles=CCOC(=O)Cc1cccc(NS(=O)(=O)c2cccc(Cl)c2C)n1 value_observed=7.38
entry_smiles=COc1ccc(-c2ccc(S(=O)(=O)Nc3cccc(C)n3)c(C)c2)cc1 value_observed=7.72
entry_smiles=Cc1cccc(NS(=O)(=O)c2ccc(-c3cccc(Cl)c3Cl)cc2C)n1 value_observed=8.15
entry_smiles=Cc1cccc(NS(=O)(=O)c2cc3ccccc3s2)n1 value_observed=7.51
entry_smiles=Cc1cccc(NS(=O)(=O)c2ccc(-c3cccc(C(C)C)c3)cc2C)n1 value_observed=7.41
entry_smiles=COc1ccc(-c2ccc(S(=O)(=O)Nc3cccc(C)n3)cc2)cc1 value_observed=7.65
entry_smiles=N#Cc1ccc(-c2ccc(S(=O)(=O)Nc3ccc4ccccc4n3)cc2)cc1 value_observed=8.44
entry_smiles=Cc1cccc(NS(=O)(=O)c2ccc(-c3ccccc3F)cc2C)n1 value_observed=8.03
entry_smiles=Cc1cccc(NS(=O)(=O)c2ccc(-c3ccc(Cl)c(Cl)c3)cc2C)n1 value_observed=8.28
entry_smiles=Cc1cccc(NS(=O)(=O)c2ccc(-c3ccc(F)c(Cl)c3)cc2C)n1 value_observed=8.09
entry_smiles=CCOC(=O)Cc1cccc(NS(=O)(=O)c2sc3ccc(Cl)cc3c2C)n1 value_observed=8.55
entry_smiles=Cc1cccc(NS(=O)(=O)c2ccc(-c3cccc(Cl)c3)cc2C)n1 value_observed=8.10
entry_smiles=CCN(CC)C(=O)Cc1cccc(NS(=O)(=O)c2ccc(C(F)(F)F)cc2)n1 value_observed=6.32
entry_smiles=CCN(CC)C(=O)Cc1cccc(NS(=O)(=O)c2ccc3ccccc3c2)n1 value_observed=6.77
entry_smiles=CCOC(=O)Cc1cccc(NS(=O)(=O)c2ccc(-c3ccc(C#N)cc3)cc2)n1 value_observed=7.80
entry_smiles=Nc1cccc(NS(=O)(=O)c2ccc(-c3ccc(Cl)cc3)cc2)n1 value_observed=8.34
entry_smiles=Cc1cccc(NS(=O)(=O)c2sc3ccc(C#N)cc3c2C)n1 value_observed=8.64

###

# system name: 11β-hsd-1 enzyme (Homo sapiens, UniProt P28845)
# test method notes: 11β-hsd-1 enzyme assay, percentage of inhibition (3H-cortisone to cortisol, radio-HPLC)
# Assay type: biochemical
# test context: compound at 0.1 uM; read-out: % inh @ 0.1 uM
Recorded inhibition at 0.1 µM by entry
measure name: inhibition at 0.1 µM (%)

molecule="Cc1ccc(-c2ccc(S(=O)(=O)Nc3cccc(C)n3)cc2C)cc1 [Example 215]" value_observed=90
molecule="COc1ccc(-c2ccc(S(=O)(=O)Nc3cccc(C)n3)cc2)cn1 [Example 256]" value_observed=89.3
molecule="Cc1cccc(NS(=O)(=O)c2ccc(-c3ccccc3Cl)c(C)c2)n1 [Example 212]" value_observed=75
molecule="Cc1cccc(-c2ccc(S(=O)(=O)Nc3cccc(C)n3)cc2C)c1 [Example 227]" value_observed=40
molecule="Cc1cccc(NS(=O)(=O)c2ccc(-c3ccc(CC(C)C)cc3)c(C)c2)n1 [Example 248]" value_observed=57
molecule="N#Cc1ccc(-c2ccc(S(=O)(=O)Nc3cccc(C4CC4)n3)cn2)cc1 [Example 293]" value_observed=100
molecule="Cc1cccc(NS(=O)(=O)c2ccc(-c3cccc(CO)c3)c(C)c2)n1 [Example 226]" value_observed=94
molecule="Cc1cccc(NS(=O)(=O)c2ccc(-c3ccc(O)cc3)cc2)n1 [Example 252]" value_observed=44
molecule="Cc1cccc(NS(=O)(=O)c2ccc(-c3ccc(CO)cc3)c(C)c2)n1 [Example 223]" value_observed=79
molecule="COc1cc(-c2ccc(S(=O)(=O)Nc3cccc(C)n3)cc2)ccc1C#N [Example 270]" value_observed=94.8
molecule="CCS(=O)(=O)c1ccc(-c2ccc(S(=O)(=O)Nc3cccc(C)n3)c(C)c2)cc1 [Example 203]" value_observed=86
molecule="Cc1cccc(NS(=O)(=O)c2ccc(-c3ccc(F)c(F)c3)c(C)c2)n1 [Example 244]" value_observed=86
molecule="Cc1cccc(NS(=O)(=O)c2ccc(-c3cccc(F)c3)c(C)c2)n1 [Example 224]" value_observed=93
molecule="Cc1ccc(C)c(-c2ccc(S(=O)(=O)Nc3cccc(C)n3)cc2C)c1 [Example 240]" value_observed=89
molecule="N#Cc1ccc(C2CCN(S(=O)(=O)Nc3cccc(N)n3)CC2)cc1 [Example 317]" value_observed=100
molecule="CCOc1ccc(-c2ccc(S(=O)(=O)Nc3cccc(C)n3)cc2)c(C)c1 [Example 254]" value_observed=85.4
molecule="CCOc1ccc(-c2ccc(S(=O)(=O)Nc3cccc(C)n3)cc2C)cc1 [Example 229]" value_observed=9
molecule="Cc1cccc(NS(=O)(=O)c2ccc(-c3ccccc3)c(C)c2)n1 [Example 214]" value_observed=72

###

Recorded inhibition at 0.1 µM by entry
# system name: 11β-hsd-1 enzyme (Homo sapiens)
# test method notes: 11β-hsd-1 enzyme assay, percentage of inhibition (3H-cortisone to cortisol, radio-HPLC)
# Type: biochemical
# test context: compound at 0.1 uM; read-out: % inh @ 0.1 uM
measure name: inhibition at 0.1 µM (%)

molecule=O=S(=O)(Nc1ccc2ccccc2n1)c1ccc(-c2ccc(F)cc2)nc1 value_observed=92.5
molecule=COc1ccc(C(C)C)cc1-c1ccc(S(=O)(=O)Nc2cccc(C)n2)cc1C value_observed=65
molecule=Cc1cccc(NS(=O)(=O)N2CCC(c3cccc(F)c3)CC2)n1 value_observed=90
molecule=Cc1cccc(NS(=O)(=O)c2ccc(-c3ccc(F)cc3)cc2C)n1 value_observed=100
molecule=Cc1cccc(NS(=O)(=O)c2ccc(-c3cccc(F)c3F)c(C)c2)n1 value_observed=82
molecule="Cc1cccc(NS(=O)(=O)N2CCC(c3ccncc3)C2)n1 (stereo not drawn)" value_observed=3.4
molecule=COc1ccc(-c2ccc(S(=O)(=O)Nc3cccc(C)n3)cc2)c(C)c1 value_observed=64.6
molecule=N#Cc1ccc(-c2ccc(S(=O)(=O)Nc3ccc4ccccc4n3)cc2)nc1 value_observed=91
molecule=Cc1cccc(NS(=O)(=O)c2ccc(-c3ccc(C#N)cc3C(F)(F)F)cc2)n1 value_observed=100

###

Recorded inhibition at 0.1 µM by entry
# system name: 11β-hsd-1 enzyme (Homo sapiens)
# test method notes: 11β-hsd-1 enzyme assay, percentage of inhibition (3H-cortisone to cortisol, radio-HPLC)
# Assay type: biochemical
# test context: compound at 0.1 uM; read-out: % inh @ 0.1 uM
measure name: inhibition at 0.1 µM

entry_smiles=Cc1cccc(NS(=O)(=O)c2ccc(-c3c(C)cccc3C)c(C)c2)n1 measure_name="inhibition at 0.1 µM" value_observed=64%
entry_smiles=CCc1ccc(-c2ccc(S(=O)(=O)Nc3cccc(C)n3)cc2C)cc1 measure_name="inhibition at 0.1 µM" value_observed=87%
entry_smiles=Cc1cccc(NS(=O)(=O)N2CCC(c3ccccc3)(c3ccccc3)CC2)n1 measure_name="inhibition at 0.1 µM" value_observed=29.5%
entry_smiles=Cc1cccc(NS(=O)(=O)c2ccc(-c3ccc(C#N)cc3)c(C(F)(F)F)c2)n1 measure_name="inhibition at 0.1 µM" value_observed=100%
entry_smiles=Cc1cccc(NS(=O)(=O)c2ccc(-c3ccc(C(C)C)cc3)c(C)c2)n1 measure_name="inhibition at 0.1 µM" value_observed=78%
entry_smiles=Cc1cccc(NS(=O)(=O)c2ccc(-c3cc(F)cc(F)c3)c(C)c2)n1 measure_name="inhibition at 0.1 µM" value_observed=28%
entry_smiles=Cc1cccc(NS(=O)(=O)c2ccc(-c3ccc(CC(C)C)cc3)cc2C)n1 measure_name="inhibition at 0.1 µM" value_observed=74%
entry_smiles=COc1ccc(-c2ccc(S(=O)(=O)Nc3cccc(C)n3)cc2C)cc1C measure_name="inhibition at 0.1 µM" value_observed=70%

Where do the numbers come from? From patent US20050148631A1.
